- tested system: T1, Myo5, Q04439
- T1 sequence (Q04439 1072-1160, looked up): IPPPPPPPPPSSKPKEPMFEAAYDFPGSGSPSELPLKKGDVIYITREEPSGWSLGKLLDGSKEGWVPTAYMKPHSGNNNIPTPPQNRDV
- test name: SPOT array
- reported conditions: median of control spots 471
assay readout: SPOT intensity

Examples from the recorded data:
[[record]]
binder = "VPKEPAPAPPPEPDM"
assay_readout = "SPOT intensity"
test_value = 93

[[record]]
binder = "KKEKKPPKIPKKVYT"
assay_readout = "SPOT intensity"
test_value = 0

[[record]]
binder = "DLFKPLPEPPTELGR"
assay_readout = "SPOT intensity"
test_value = 0

[[record]]
binder = "TSFKGRPKPPKTLKH"
assay_readout = "SPOT intensity"
test_value = 0


A = NIKVLLNPKLGKPVK
B = RHLKLVPSTPMDIPW
C = IAPIPMPKPNPTHIS
Query string: Please give the order of these binders when sorted by SPOT intensity, largest value leading. Thanks in advance for listing the labels in the requested order.
Result string: B, C, A

a = SRYRRPLTLLLLKPF
b = LKPPIGRPPKFPKSP
c = QLMKNLPKIPLLNDI
Query string: Write the entries in order, lowest recorded SPOT intensity first. Thanks in advance for listing the labels in the requested order.
Result string: a, c, b

I = NAGIRPKFILALNDE
II = ISNFVPPNLPMRRFK
III = KNPRRQLQIPRQQPS
Query string: Please give the order of these binders when sorted by SPOT intensity, largest value leading. Thanks in advance for listing the labels in the requested order.
Result string: II, III, I

1 = WTQRRGPLVVYAEDN
2 = RTIRKLPLMSLSEYF
Query string: From the recorded data, which exceeds the other in SPOT intensity: 1 or 2 ? Respond using the label that marks the chosen record.
Result string: 2
